T2 sensor activation Q score overview
- System: ppGalNAc-T2 sensor
- test.details: T2 sensor activation Q score (MG/GFP ratio z-score vs DMSO controls) (SD units); higher = more sensor activation (inhibition of ppGalNAc-T2 glycosylation)
- experimental.parameters: HEK293 sensor cells; 10 µM; 6 h
The full ranking holds about 1,700 compounds; the median of “T2 sensor activation Q score (MG/GFP ratio z-score vs DMSO controls)” is about 0.3, and the highest 2% start at about 1.9. The sample as a whole holds a higher share of the highest values than the screen did.
Give the figure by itself; no unit, no explanation.

| compound | parameter | endpoint.result |
| --- | --- | --- |
| Nc1ccc(C(=O)Nc2cccc(N)c2)cc1 | T2 sensor activation Q score | -0.5 |

Quick one: T2 sensor activation Q score of C1C2CC3C1C3/C2=N\N=C1/C2CC3C(C2)C13 ? 0.3

One more compound: CC[C@]1(O)C[C@@H]2CN(CCc3c([nH]c4ccccc34)[C@@](C(=O)OC)(c3cc4c(cc3OC)N(C)[C@H]3[C@@](O)(C(=O)OC)[C@H](OC(C)=O)[C@]5(CC)C=CCN6CC[C@]43[C@@H]65)C2)C1 2.05

One more compound: O=CN/C=C\c1cc(O)ccc1O -0.3

One more compound: Cn1c2c(sc1=O)CCC2 -0.4

One more compound: c1ccc2c(c1)nnn2-c1ccncc1 -0.1

One more compound: Cc1ccc(C#CC(C)(O)C(C)(C)C)cn1 (configuration not stated) -0.05

###

- Test system: ppGalNAc-T2 sensor
- test.details: T2 sensor activation Q score (MG/GFP ratio z-score vs DMSO controls) (SD units); higher = more sensor activation (inhibition of ppGalNAc-T2 glycosylation)
- experimental.parameters: HEK293 sensor cells; 10 µM; 6 h
Whole data set: some 1,700 compounds, median “T2 sensor activation Q score (MG/GFP ratio z-score vs DMSO controls)” near 0.3, cut for the highest 2% near 1.9. The sample holds the highest values, similar compounds and a random draw of the others, so the mix is not that of the screen.
parameter: T2 sensor activation Q score
Give the figure by itself; no unit, no explanation.

// solved cases for T2 sensor activation Q score follow
| compound | T2 sensor activation Q score |
| --- | --- |
| O=C(C=Cc1ccc(O)c(O)c1)c1ccccc1O | -0.4 |
| CCn1c(=O)n(C)c2c(=O)n(C)c(=O)n(C)c21 | -1.1 |
| CN(C)c1ccc(/C=C(\C#N)C(=O)c2ccccc2)cc1 | -0.3 |
| CC(=O)c1c(O)c(C)c(O)c2c1OC1=CC(=O)/C(=C(/C)N)C(=O)C12C (stereo not given) | -1.2 |

Please turn your attention to the following entry.
Quick one: T2 sensor activation Q score of O=C(Oc1ccccc1)N(c1ccccc1)c1ccccc1 ? 0.35
